Give inhibition for every item shown.
Target: Platelet-derived growth factor receptor alpha (Homo sapiens)
Conditions: at 0.1 µM
Description: GSK_PKIS: PDGFRA mean inhibition at 0.1 uM [Nanosyn]
Give bare numbers, in %.

- compound: "COc1cc(N2CCN(C(C)C)CC2)ccc1Nc1nc(Nc2cccc(F)c2C(=O)O)c2cc[nH]c2n1"
  result: 11.3

Hey, can you go through the list below and give me inhibition for every item?
1. NS(=O)(=O)c1ccc(N/N=C2\C(=O)Nc3ccc(C(=O)NCc4ccncc4)cc32)cc1
2. COc1cc2c(cc1Nc1nc(Nc3cccc(F)c3C(N)=O)c3cc[nH]c3n1)N(C(=O)CN1CCN(C(C)C)CC1)CC2
3. COc1ccc2ncn(-c3cc(O[C@H](C)c4ccccc4C(F)(F)F)c(C(N)=O)s3)c2c1
4. CN(C)CCNC(=O)Nc1ccc(N(C)c2ccnc(Nc3ccc(CS(C)(=O)=O)cc3)n2)cc1
5. CCS(=O)(=O)c1ccc(OC)c(Nc2ncc(-c3cccc(C(C)=O)c3)o2)c1
6. COC(=O)Nc1nc2ccc(Oc3ccc(NC(=O)Nc4cc(C(F)(F)F)ccc4F)cc3)cc2s1
7. CC(C)c1ccc(-c2cc(-c3c[nH]nc3-c3ccccn3)ccn2)cc1
8. COc1ccc(Nc2ncc(-c3ccccc3)o2)cc1OC

Marked response:
1: 23.6; 2: -1.51; 3: 8.31; 4: 19.4; 5: 23.2; 6: 70.3; 7: 10; 8: 25.9

Hey, can you go through the list below and give me inhibition for every item?
1. O=C(O[C@H]1CN[C@H](C#Cc2cc3ncnc(Nc4ccc(OCc5cccc(F)c5)c(Cl)c4)c3s2)C1)N1CCOCC1
2. O=C(O[C@H]1CN[C@H](C#Cc2cc3ncnc(Nc4ccc5c(ccn5Cc5cc(F)ccc5F)c4)c3s2)C1)N1CCOCC1
3. Cc1c2ccc(N(C)c3ccnc(Nc4cccc(S(N)(=O)=O)c4)n3)cc2nn1C
4. CCS(=O)(=O)c1ccc(OC)c(Nc2ncc(-c3cccc(F)c3)o2)c1
5. O=C(O[C@H]1CN[C@H](C#Cc2cc3ncnc(Nc4ccc5c(cnn5Cc5ccccc5)c4)c3s2)C1)N1CCOCC1
6. CC1=C(C(=O)Nc2ccc3[nH]nc(C)c3c2)C(c2ccc(C(F)(F)F)cc2)CC(=O)N1 (stereo not given)

Marked response:
7.9
6.05
63.5
21.1
2.17
7.08

====

Molecular target: Macrophage-stimulating protein receptor (Homo sapiens) (UniProt Q04912)
Sequence (Q04912 25-304 limits assumed): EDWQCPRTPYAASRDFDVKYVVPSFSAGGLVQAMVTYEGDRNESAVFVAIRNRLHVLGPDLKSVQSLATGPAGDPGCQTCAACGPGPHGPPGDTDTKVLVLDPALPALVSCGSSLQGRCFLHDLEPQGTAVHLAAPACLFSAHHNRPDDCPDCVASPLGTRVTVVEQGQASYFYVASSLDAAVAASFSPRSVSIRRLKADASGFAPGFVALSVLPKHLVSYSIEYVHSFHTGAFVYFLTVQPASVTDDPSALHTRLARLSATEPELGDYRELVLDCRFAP
Sequence (Q04912 310-1400 limits assumed): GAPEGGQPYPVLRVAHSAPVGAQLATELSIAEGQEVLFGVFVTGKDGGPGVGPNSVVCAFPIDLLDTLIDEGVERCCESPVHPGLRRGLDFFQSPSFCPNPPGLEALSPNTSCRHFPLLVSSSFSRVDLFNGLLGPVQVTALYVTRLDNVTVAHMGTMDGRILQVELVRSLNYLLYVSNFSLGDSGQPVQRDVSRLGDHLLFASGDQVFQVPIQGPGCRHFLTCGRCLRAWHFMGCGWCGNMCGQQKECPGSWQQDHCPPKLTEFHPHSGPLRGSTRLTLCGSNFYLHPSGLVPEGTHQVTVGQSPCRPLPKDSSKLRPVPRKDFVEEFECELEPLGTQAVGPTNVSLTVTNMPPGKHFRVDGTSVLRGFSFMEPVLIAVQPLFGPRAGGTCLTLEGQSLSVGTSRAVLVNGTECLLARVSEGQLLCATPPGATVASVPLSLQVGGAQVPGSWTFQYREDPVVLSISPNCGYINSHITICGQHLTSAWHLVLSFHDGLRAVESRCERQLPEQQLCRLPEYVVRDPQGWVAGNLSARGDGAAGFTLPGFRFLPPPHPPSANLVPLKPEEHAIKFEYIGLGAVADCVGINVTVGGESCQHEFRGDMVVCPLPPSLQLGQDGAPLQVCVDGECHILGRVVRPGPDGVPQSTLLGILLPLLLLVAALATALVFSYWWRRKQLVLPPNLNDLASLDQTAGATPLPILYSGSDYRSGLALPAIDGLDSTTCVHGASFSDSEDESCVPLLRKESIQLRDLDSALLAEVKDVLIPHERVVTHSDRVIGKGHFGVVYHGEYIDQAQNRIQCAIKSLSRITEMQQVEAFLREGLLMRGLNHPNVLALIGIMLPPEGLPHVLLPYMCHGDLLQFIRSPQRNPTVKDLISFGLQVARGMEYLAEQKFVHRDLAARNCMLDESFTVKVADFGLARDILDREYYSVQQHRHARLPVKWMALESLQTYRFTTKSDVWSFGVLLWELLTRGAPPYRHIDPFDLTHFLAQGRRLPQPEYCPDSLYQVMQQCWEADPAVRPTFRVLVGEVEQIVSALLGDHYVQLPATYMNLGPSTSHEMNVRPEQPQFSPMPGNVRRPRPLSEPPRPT
Conditions: at 1 µM
Description: GSK_PKIS: RON mean inhibition at 1 uM [Nanosyn]
recorded_metric: inhibition (%)
One number for each entry, in %.

Hey, can you go through the list below and give me inhibition for every item?
1. CS(=O)(=O)CCNCc1ccc(-c2ccc3ncnc(Nc4ccc(OCc5cccc(C(F)(F)F)c5)cc4)c3c2)o1
2. COc1c(C(N)=O)cc(-c2ccc(Cl)cc2)cc1-c1ccc(S(N)(=O)=O)cc1
3. COc1cccc(-n2ncc3c(N/N=C/c4ccc(C(=O)NCCN(C)C)cc4)ncnc32)c1
4. COc1cc(N2CCN(C(C)C)CC2)ccc1Nc1nc(Nc2cccc3ncccc23)c2cc[nH]c2n1

Marked response:
1: 3.05; 2: 6.97; 3: 66.3; 4: 1.56

====

Biological target: Tyrosine-protein kinase Fgr (Homo sapiens) (UniProt P09769);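 further: value reported as mean kinase inhibition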
Sequence (P09769 2-529 limits assumed): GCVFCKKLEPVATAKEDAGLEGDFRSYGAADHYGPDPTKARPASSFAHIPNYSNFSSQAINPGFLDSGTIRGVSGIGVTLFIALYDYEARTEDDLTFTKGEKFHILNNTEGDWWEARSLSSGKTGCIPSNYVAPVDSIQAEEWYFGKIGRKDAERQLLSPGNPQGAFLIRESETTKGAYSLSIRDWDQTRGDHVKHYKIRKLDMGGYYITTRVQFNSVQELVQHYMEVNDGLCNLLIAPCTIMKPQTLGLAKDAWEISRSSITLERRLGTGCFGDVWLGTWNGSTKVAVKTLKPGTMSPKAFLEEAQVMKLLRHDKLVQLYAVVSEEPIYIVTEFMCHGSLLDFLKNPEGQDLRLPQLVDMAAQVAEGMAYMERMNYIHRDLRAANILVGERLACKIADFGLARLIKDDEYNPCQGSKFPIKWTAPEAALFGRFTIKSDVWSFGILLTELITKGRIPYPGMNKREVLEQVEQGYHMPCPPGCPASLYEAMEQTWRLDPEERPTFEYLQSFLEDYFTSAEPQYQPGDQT
Settings: at 1 µM
Dear colleague, classification is by inhibition, with ranges listed here: low-valued: < 3%; mid-valued: ≥ 3% and < 20%; high-valued: ≥ 20%

Please review the entries below; each comes with its answer.
- item_smiles: "NC(=O)c1ccc2c(-c3ccnc(NCCCO)n3)c(-c3ccc(F)cc3)nn2c1"
  assigned_class: "mid-valued"
- item_smiles: "CCS(=O)(=O)c1ccc(OC)c(Nc2ncc(-c3cccc(F)c3)o2)c1"
  assigned_class: "high-valued"
- item_smiles: "COc1cc(N2CCN(C(C)C)CC2)ccc1Nc1nc(Nc2cccc(F)c2C(=O)O)c2cc[nH]c2n1"
  assigned_class: "mid-valued"

Exam item: Please let me know in which category the item COc1ccc(Nc2ncc(-c3ccccc3)o2)cc1OC belongs.
Marked response: high-valued

Exam item: Please let me know in which category the item NS(=O)(=O)c1ccc(N/N=C2\C(=O)Nc3cccc(CCc4ccncc4)c32)cc1 belongs.
Marked response: mid-valued

Exam item: Please let me know in which category the item CCN1CCC(C(=O)Nc2n[nH]c3nnc(-c4cccc(F)c4F)cc23)CC1 belongs.
Marked response: mid-valued

Exam item: Please let me know in which category the item COc1ccc2ncn(-c3cc(O[C@H](C)c4ccccc4C(F)(F)F)c(C(N)=O)s3)c2c1 belongs.
Marked response: low-valued

Exam item: Please let me know in which category the item Fc1cccc(COc2ccc(Nc3ncncc3C#Cc3ccccc3)cc2Cl)c1 belongs.
Marked response: low-valued

====

System: Tyrosine-protein kinase ABL1 (Homo sapiens), P00519 [H396P]
Settings: at 1 µM
recorded_metric: inhibition (%)
One number for each entry, in %.

Example results:
- item_smiles: "COc1cc(N2CCN(C(C)C)CC2)ccc1Nc1nc(Nc2cccc(F)c2C(=O)O)c2cc[nH]c2n1"
  inhibition (%): 3.69
- item_smiles: "CC1(C)CC(n2cnc(-c3ccc(F)cc3)c2-c2ccnc(N)n2)CC(C)(C)N1"
  inhibition (%): 0.59
- item_smiles: "NS(=O)(=O)c1ccc(N/N=C2\\C(=O)Nc3ccc(C(=O)NCc4ccncc4)cc32)cc1"
  inhibition (%): 15
- item_smiles: "O=C(Nc1n[nH]c2nnc(-c3cccnc3)cc12)C1CC1"
  inhibition (%): 3.4

Turning now to a further compound:
Exam item: Please supply the value of reported inhibition for the item CCS(=O)(=O)c1ccc(OC)c(Nc2ncc(-c3cccc(C(C)=O)c3)o2)c1
Marked response: 67.3

====

Target: Dual specificity protein kinase TTK (Homo sapiens)
Sequence (whole entry): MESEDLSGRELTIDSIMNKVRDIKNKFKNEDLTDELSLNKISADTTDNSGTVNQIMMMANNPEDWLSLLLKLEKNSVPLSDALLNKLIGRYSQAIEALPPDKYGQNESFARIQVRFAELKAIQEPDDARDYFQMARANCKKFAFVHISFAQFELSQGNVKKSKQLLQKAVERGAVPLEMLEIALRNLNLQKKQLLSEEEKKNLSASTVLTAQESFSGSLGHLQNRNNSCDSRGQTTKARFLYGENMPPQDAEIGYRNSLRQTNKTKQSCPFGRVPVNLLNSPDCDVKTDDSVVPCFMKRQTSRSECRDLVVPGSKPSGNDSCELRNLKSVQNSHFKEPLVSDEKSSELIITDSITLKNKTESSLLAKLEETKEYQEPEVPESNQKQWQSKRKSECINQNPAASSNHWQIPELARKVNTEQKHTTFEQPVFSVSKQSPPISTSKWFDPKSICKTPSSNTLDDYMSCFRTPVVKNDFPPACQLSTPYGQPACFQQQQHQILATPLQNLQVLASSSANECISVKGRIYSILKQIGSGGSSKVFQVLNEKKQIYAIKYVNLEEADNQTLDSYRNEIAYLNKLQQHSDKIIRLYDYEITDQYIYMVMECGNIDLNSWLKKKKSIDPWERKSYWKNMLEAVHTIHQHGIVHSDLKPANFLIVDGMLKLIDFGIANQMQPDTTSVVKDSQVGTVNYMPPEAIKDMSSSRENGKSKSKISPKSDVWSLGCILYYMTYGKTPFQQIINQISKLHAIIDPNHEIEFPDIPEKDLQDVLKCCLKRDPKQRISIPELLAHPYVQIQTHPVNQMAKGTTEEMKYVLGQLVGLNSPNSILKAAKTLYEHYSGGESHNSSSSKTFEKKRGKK
Details: at 0.1 µM
Description: GSK_PKIS: TTK mean inhibition at 0.1 uM [Nanosyn]
Give inhibition for every item shown.
One number for each entry, in %.

Example results:
- item_smiles: "COc1cc2c(cc1Nc1nc(Nc3cccc(F)c3C(N)=O)c3cc[nH]c3n1)N(C(=O)CN1CCN(C(C)C)CC1)CC2"
  unit_of_measure: "%"
  inhibition: 11.4
- item_smiles: "CS(=O)(=O)Nc1ccc(-c2ccc3c(NC(=O)C4CC4)n[nH]c3c2)cc1"
  unit_of_measure: "%"
  inhibition: 7.49
- item_smiles: "COc1cc(N2CCN(C(C)C)CC2)ccc1Nc1nc(Nc2cccc3ncccc23)c2cc[nH]c2n1"
  unit_of_measure: "%"
  inhibition: 52.1

Hey, can you go through the list below and give me inhibition for every item?
1. COc1ccc2ncn(-c3cc(O[C@H](C)c4ccccc4C(F)(F)F)c(C(N)=O)s3)c2c1
2. O=C(O[C@H]1CN[C@H](C#Cc2cc3ncnc(Nc4ccc(OCc5cccc(F)c5)c(Cl)c4)c3s2)C1)N1CCOCC1
3. NS(=O)(=O)c1cccc(N/C=C2\C(=O)Nc3ccccc32)c1
4. O=C(O[C@H]1CN[C@H](C#Cc2cc3ncnc(Nc4ccc5c(cnn5Cc5ccccc5)c4)c3s2)C1)N1CCOCC1
5. COc1cccc(Nc2nccc(-c3cnn4ncccc34)n2)c1

Marked response:
[0.16, 12.4, 9.01, 5.51, 4.85]

Hey, can you go through the list below and give me inhibition for every item?
1. Cc1c2ccc(N(C)c3ccnc(Nc4cccc(S(N)(=O)=O)c4)n3)cc2nn1C
2. COC(=O)Nc1nc2ccc(Oc3ccc(NC(=O)Nc4cc(C(F)(F)F)ccc4F)cc3)cc2s1
3. NS(=O)(=O)c1ccc(N/N=C2\C(=O)Nc3ccc(C(=O)NCc4ccncc4)cc32)cc1

Marked response:
8.91
0.59
37.6

Hey, can you go through the list below and give me inhibition for every item?
1. COC(=O)Nc1nc2cc(Oc3ccc(NC(=O)Nc4ccccc4)cc3)ccc2[nH]1
2. N#Cc1ccc2c(-c3ccnc(NC4CC4)n3)c(-c3ccc(F)cc3)nn2c1
3. Cc1nnc(-c2cccc(-c3ccc(C(=O)NCC4CC4)cc3)c2)o1

Marked response:
1. 6.44
2. 2.64
3. 9.53

Hey, can you go through the list below and give me inhibition for every item?
1. COc1cc(Nc2ncc(-c3ccccc3)o2)cc(OC)c1
2. CCOc1ccc2c(-c3ccnc(Nc4cc(OC)cc(C(F)(F)F)c4)n3)cnn2n1
3. CS(=O)(=O)Nc1ccc(-c2cc(-c3ccccc3)cc(C(N)=O)c2N)cc1
4. NS(=O)(=O)c1ccc(N/N=C2\C(=O)Nc3cccc(CCc4ccncc4)c32)cc1
5. OCCCNc1nccc(-c2c(-c3ccc(F)cc3)nn3cc(C(F)(F)F)ccc23)n1
6. O=C(O[C@H]1CN[C@H](C#Cc2cc3ncnc(Nc4ccc5c(ccn5Cc5cc(F)ccc5F)c4)c3s2)C1)N1CCOCC1
7. CN1CCC(n2cnc(-c3ccc(F)cc3)c2-c2ccnc(NCCO)n2)CC1

Marked response:
1. 10
2. -0.36
3. 3.79
4. 20.8
5. 3.55
6. 11
7. -0.23
